- Target: recombinant human CD3ε/δ heterodimer (human) (UniProt P07766)
- Sequence (P07766 23-126, stated change not applied, chain 1 of 2): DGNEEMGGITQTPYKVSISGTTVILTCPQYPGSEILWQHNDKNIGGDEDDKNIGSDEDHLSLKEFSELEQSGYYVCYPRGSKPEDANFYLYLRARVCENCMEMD
- Sequence (P04234 22-105, stated change not applied, chain 2 of 2, further chain): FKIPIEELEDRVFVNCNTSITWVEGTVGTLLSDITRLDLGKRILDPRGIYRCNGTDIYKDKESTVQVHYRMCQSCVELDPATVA
- Test: ELISA, coated CD3ε/δ
Give yes (1) when the value for Absorbance (450 nm) is at least 0.1. Give no (0) when it is less.

Examples from the recorded data:
[
  {
    "Binder": "G11 (antibody, human IgG1, lambda, L234A L235A, V domains shown) VH: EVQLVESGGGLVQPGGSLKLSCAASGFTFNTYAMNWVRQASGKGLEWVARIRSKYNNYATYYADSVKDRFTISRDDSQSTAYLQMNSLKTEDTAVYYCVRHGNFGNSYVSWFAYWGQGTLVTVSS VL: QAVVTQEPSLTVSPGGTVTLTCRSSTGAVTTSNYANWVQQKPGQAPRTLIGGTNKRAPWTPARFSGSLLGGKAALTLSGAQPEDEAEYYCALWYSNLWVFGGGTKLTVLG",
    "Discrete Label": "yes (1)"
  },
  {
    "Binder": "B02 (antibody, human IgG1, lambda, L234A L235A, V domains shown) VH: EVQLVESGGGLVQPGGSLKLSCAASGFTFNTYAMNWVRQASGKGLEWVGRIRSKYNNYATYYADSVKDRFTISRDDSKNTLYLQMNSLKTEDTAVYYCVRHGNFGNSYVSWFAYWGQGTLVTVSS VL: QAVVTQEPSLTVSPGGTVTLTCRSSTGAVTTSNYANWFQQKPGQAPRTLIYGTNKRAPWTPARFSGSLLGDKAALTLSGAQPEDEAEYYCALWYSNLWVFGGGTKLTVLG",
    "Discrete Label": "no (0)"
  },
  {
    "Binder": "A10 (antibody, human IgG1, lambda, L234A L235A, V domains shown) VH: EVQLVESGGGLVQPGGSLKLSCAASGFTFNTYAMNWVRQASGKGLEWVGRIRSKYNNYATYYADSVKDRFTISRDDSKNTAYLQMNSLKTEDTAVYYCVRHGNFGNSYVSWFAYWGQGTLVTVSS VL: QAVVTQEPSLTVSPGGTVTLTCRSSTGAVTTSNYANWVQQKPGQAPRTLIYGTNKRAPWTPARFSGSLLGDKAALTLSGAQPEDEAEYYCALWYSNLWVFGGGTKLTVLG",
    "Discrete Label": "no (0)"
  },
  {
    "Binder": "H02 (antibody, human IgG1, lambda, L234A L235A, V domains shown) VH: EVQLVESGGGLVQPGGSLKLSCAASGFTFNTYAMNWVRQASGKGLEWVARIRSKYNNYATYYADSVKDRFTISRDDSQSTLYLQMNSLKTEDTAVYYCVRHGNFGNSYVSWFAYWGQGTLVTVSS VL: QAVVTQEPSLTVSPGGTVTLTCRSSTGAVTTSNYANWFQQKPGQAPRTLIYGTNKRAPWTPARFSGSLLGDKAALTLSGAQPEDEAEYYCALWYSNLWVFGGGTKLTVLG",
    "Discrete Label": "yes (1)"
  },
  {
    "Binder": "C08 (antibody, human IgG1, lambda, L234A L235A, V domains shown) VH: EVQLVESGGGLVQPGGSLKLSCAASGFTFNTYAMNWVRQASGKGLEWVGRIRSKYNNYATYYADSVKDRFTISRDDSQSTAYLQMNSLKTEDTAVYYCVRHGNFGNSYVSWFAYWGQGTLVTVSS VL: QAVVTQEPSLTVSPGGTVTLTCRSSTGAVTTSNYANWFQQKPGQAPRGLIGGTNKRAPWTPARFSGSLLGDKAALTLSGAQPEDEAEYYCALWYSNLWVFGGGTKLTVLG",
    "Discrete Label": "yes (1)"
  },
  {
    "Binder": "H15 (antibody, human IgG1, lambda, L234A L235A, V domains shown) VH: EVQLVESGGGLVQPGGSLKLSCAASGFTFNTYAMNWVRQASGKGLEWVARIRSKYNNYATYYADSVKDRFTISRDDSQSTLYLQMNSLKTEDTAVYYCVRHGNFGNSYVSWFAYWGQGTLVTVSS VL: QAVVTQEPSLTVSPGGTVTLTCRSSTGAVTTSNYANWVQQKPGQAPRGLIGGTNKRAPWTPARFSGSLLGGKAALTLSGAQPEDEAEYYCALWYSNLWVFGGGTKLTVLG",
    "Discrete Label": "yes (1)"
  }
]

Ask: Tell me whether Absorbance (450 nm) is at least 0.1 here: E05 (antibody, human IgG1, lambda, L234A L235A, V domains shown) VH: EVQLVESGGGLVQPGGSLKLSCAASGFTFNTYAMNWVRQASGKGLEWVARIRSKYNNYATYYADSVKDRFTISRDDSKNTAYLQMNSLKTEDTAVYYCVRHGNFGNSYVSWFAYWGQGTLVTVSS VL: QAVVTQEPSLTVSPGGTVTLTCRSSTGAVTTSNYANWFQQKPGQAPRGLIYGTNKRAPWTPARFSGSLLGGKAALTLSGAQPEDEAEYYCALWYSNLWVFGGGTKLTVLG
Reply: no (0)

Ask: Tell me whether Absorbance (450 nm) is at least 0.1 here: D07 (antibody, human IgG1, lambda, L234A L235A, V domains shown) VH: EVQLVESGGGLVQPGGSLKLSCAASGFTFNTYAMNWVRQASGKGLEWVGRIRSKYNNYATYYADSVKDRFTISRDDSQSTLYLQMNSLKTEDTAVYYCVRHGNFGNSYVSWFAYWGQGTLVTVSS VL: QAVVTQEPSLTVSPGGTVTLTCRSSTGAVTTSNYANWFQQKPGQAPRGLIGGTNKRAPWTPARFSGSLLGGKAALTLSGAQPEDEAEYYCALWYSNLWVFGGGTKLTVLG
Reply: yes (1)

Ask: Tell me whether Absorbance (450 nm) is at least 0.1 here: H04 (antibody, human IgG1, lambda, L234A L235A, V domains shown) VH: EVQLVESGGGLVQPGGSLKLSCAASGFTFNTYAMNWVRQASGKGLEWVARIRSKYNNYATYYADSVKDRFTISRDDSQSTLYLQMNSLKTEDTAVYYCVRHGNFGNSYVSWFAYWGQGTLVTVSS VL: QAVVTQEPSLTVSPGGTVTLTCRSSTGAVTTSNYANWFQQKPGQAPRTLIGGTNKRAPWTPARFSGSLLGDKAALTLSGAQPEDEAEYYCALWYSNLWVFGGGTKLTVLG
Reply: no (0)
